Tested on: 786-0 renal
Assay: NCI-60 one-dose screen, 48 h (100 = growth as untreated, 0 = no growth, -100 = all killed)
Settings: 10 µM
About 83,000 compounds went through this panel and 20% of them were active in at least one assay; those are over-represented in the sample as a whole.
Measurement kind: growth (%)
Field format: number, assumed %, no unit text.

Recorded results for 4 compounds are shown here.
>  <Compound>
O=C(CCCCC(=O)Oc1c(Cl)cc(Cl)cc1[N+](=O)[O-])Oc1c(Cl)cc(Cl)cc1[N+](=O)[O-]

>  <growth (%)>
101

$$$$
>  <Compound>
COc1cc2c(Nc3ccc(-c4ccc(N)cc4)cc3)ncnc2c(OC)c1OC

>  <growth (%)>
48

$$$$
>  <Compound>
CCOC(=O)c1cc(C(=O)c2ccc(Cl)cc2)n2ccc(-c3cc[n+](CC(=O)c4ccc(OC)cc4)cc3)cc12

>  <growth (%)>
9.1

$$$$
>  <Compound>
O=C(COc1cccc(/C=C2\CSc3ccccc3C2=O)c1)c1ccc(Cl)cc1

>  <growth (%)>
80.3

$$$$

Ask: # lookup: 786-0 renal growth, key = CN(C)CCCOc1ccc(NC2=C(Cl)C(=O)C(Nc3ccc(OCCCN(C)C)cc3)=C(Cl)C2=O)cc1
Result: -50

Ask: Using 786-0 renal as the test system, report measured growth of COc1ccc(/C=C2\CCCC3C2=Nc2ccccc2NC3c2ccc(OC)cc2)cc1 (stereo unspecified) .
Result: 101

Ask: With 786-0 renal as the test system, provide measured growth for this compound: Nc1ncnc2c1ncn2C1(CO)OCC(O)C(O)C1O (stereo unspecified)
Result: 101

Ask: Output reported growth of the compound Cc1cn(-c2cccc(NC(=O)c3ccc(C)c(Nc4nccc(-c5cccnc5)n4)c3)c2)cn1 on 786-0 renal.
Result: -52.2

Ask: Report measured growth on 786-0 renal; entry: COc1ccc2c(c1)C(=O)/C(=C/c1ccc([N+](=O)[O-])o1)O2
Result: -71

Ask: Tell me growth of CO[C@H]1CC(O[C@@H]2/C(C)=C/C[C@@H]3C[C@@H](C[C@]4(C=C[C@H](C)[C@@H](C5CCCCC5)O4)O3)OC(=O)[C@@H]3C=C(C)[C@@H](O)[C@H]4OC/C(=C\C=C\[C@@H]2C)[C@]43O)O[C@@H](C)C1O[C@H]1C[C@H](OC)[C@@H](O)[C@H](C)O1 (stereo partly specified) when tested on 786-0 renal.
Result: -80.3
